Test system: HEK-293 cells
Assay: HEK-293 cytotoxicity detection (CellTiter-Glo)
Type: cell-based
Conditions: Homo sapiens, 72 h, 72 h incubation, CellTiter-Glo luminescence, read-out: HEK293
Assay endpoint: IC50

Example results:
>>> assay_value("COc1cc(C(=O)Nc2cc(C(F)(F)F)ccn2)ccc1-c1nn2c(c1C(N)=O)Nc1ccc(N3CCN(CC4CCN(c5ccc(N6CCC(=O)NC6=O)cc5)CC4)CC3)cc1CC2")
"> 10 µM"
>>> assay_value("COc1ccncc1C(=O)NCc1ccc(-c2nn3c(c2C(N)=O)Nc2ccc(N4CCN(CC5CCN(c6ccc(N7CCC(=O)NC7=O)cc6)CC5)CC4)cc2CC3)cc1C")
"> 10 µM"

// IC50 value for Cc1cc(C(F)(F)F)cc(NC(=O)c2ccc(-c3nn4c(c3C(N)=O)Nc3ccc(N5CCN(CC6CCN(c7ccc(N8CCC(=O)NC8=O)cc7)CC6)CC5)cc3CC4)c(F)c2C)n1 : > 10 µM

// IC50 value for NC(=O)c1c(-c2ccc(Oc3ccccc3)cc2)nn2c1Nc1ccc(C3CCN(CCC4CCN(c5ccc(N6CCC(=O)NC6=O)cc5)CC4)CC3)cc1CC2 : 0.0811 µM

The values you see were collected from patent US20240246977A1.
